This collection of values is drawn from patent US20240132624A1.

MEASUREMENT_TARGET: T1, human FcRn/b2M (human, UniProt P61769 21-119, biotinylated)
T1 construct: bought recombinant biotinylated protein (ACRO FCM-H82W4 or Immunitrack ITF01); also called hFcRn; hFcRn/hb2M
T1 sequence (chain, as listed by the source limits assumed, chain 1 of 2): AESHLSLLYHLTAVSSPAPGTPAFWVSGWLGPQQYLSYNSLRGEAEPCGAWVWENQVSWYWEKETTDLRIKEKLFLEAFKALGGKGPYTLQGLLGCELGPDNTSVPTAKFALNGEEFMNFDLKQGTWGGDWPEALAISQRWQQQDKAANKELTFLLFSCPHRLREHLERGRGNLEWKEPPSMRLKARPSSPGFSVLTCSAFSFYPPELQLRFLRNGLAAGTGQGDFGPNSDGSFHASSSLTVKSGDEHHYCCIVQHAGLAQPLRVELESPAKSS
T1 sequence (P61769 21-119 limits assumed, chain 2 of 2): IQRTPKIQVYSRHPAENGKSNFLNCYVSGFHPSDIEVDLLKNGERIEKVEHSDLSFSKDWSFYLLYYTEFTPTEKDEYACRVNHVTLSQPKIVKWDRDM
TEST_PROTOCOL: SPR pH 6.0;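 further: surface plasmon resonance kinetics at 25 °C, diluted periplasmic extracts injected over immobilized ligand surfaces, 120 s association then 600–3600 s dissociation, running buffer containing 150 mM NaCl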
EXPERIMENTAL_READOUT: koff (s⁻¹)
Quick reminder: number only, in s⁻¹, skip the unit.

Given the entry T0263018B11 Y32Q (VHH, name in Kabat numbering, FLAG3-His6 tagged) VHH: EVQLVESGGGVVQPGGSLRLSCAASGFTFSSQAMYWVRQAPGKGLEWVSAISSGGGSTDYADSVKGRFTISRDNSKNTLYLQMNSLRPEDTALYYCAADTLYTSLTWYSYWGQGTLVTVSS , report its measured koff.
0.0023

Given T0263018B11 T57D (VHH, name in Kabat numbering, FLAG3-His6 tagged) VHH: EVQLVESGGGVVQPGGSLRLSCAASGFTFSSYAMYWVRQAPGKGLEWVSAISSGGGSDDYADSVKGRFTISRDNSKNTLYLQMNSLRPEDTALYYCAADTLYTSLTWYSYWGQGTLVTVSS , state its recorded koff.
0.00073

What value of measured koff is listed for T0263018B11 G54L (VHH, name in Kabat numbering, FLAG3-His6 tagged) VHH: EVQLVESGGGVVQPGGSLRLSCAASGFTFSSYAMYWVRQAPGKGLEWVSAISSGLGSTDYADSVKGRFTISRDNSKNTLYLQMNSLRPEDTALYYCAADTLYTSLTWYSYWGQGTLVTVSS ?
0.0016

For the binder shown here, T0263018B11 S100W (VHH, name in Kabat numbering, FLAG3-His6 tagged) VHH: EVQLVESGGGVVQPGGSLRLSCAASGFTFSSYAMYWVRQAPGKGLEWVSAISSGGGSTDYADSVKGRFTISRDNSKNTLYLQMNSLRPEDTALYYCAADTLYTWLTWYSYWGQGTLVTVSS , give the reported koff.
0.00062

Any idea what its koff is? The binder is T0263018B11 G26H (VHH, name in Kabat numbering, FLAG3-His6 tagged) VHH: EVQLVESGGGVVQPGGSLRLSCAASHFTFSSYAMYWVRQAPGKGLEWVSAISSGGGSTDYADSVKGRFTISRDNSKNTLYLQMNSLRPEDTALYYCAADTLYTSLTWYSYWGQGTLVTVSS
0.00055

Given the entry T0263018B11 S52aR (VHH, name in Kabat numbering, FLAG3-His6 tagged) VHH: EVQLVESGGGVVQPGGSLRLSCAASGFTFSSYAMYWVRQAPGKGLEWVSAISRGGGSTDYADSVKGRFTISRDNSKNTLYLQMNSLRPEDTALYYCAADTLYTSLTWYSYWGQGTLVTVSS , report its measured koff.
0.0023

What value of koff has been reported for the following binder? T0263018B11 S31Q (VHH, name in Kabat numbering, FLAG3-His6 tagged) VHH: EVQLVESGGGVVQPGGSLRLSCAASGFTFSQYAMYWVRQAPGKGLEWVSAISSGGGSTDYADSVKGRFTISRDNSKNTLYLQMNSLRPEDTALYYCAADTLYTSLTWYSYWGQGTLVTVSS
0.00038

Form field: reported koff of T0263018B11 T96A (VHH, name in Kabat numbering, FLAG3-His6 tagged) VHH: EVQLVESGGGVVQPGGSLRLSCAASGFTFSSYAMYWVRQAPGKGLEWVSAISSGGGSTDYADSVKGRFTISRDNSKNTLYLQMNSLRPEDTALYYCAADALYTSLTWYSYWGQGTLVTVSS
0.0039

Could you tell me which koff is on file for T0263018B11 A94S (VHH, name in Kabat numbering, FLAG3-His6 tagged) VHH: EVQLVESGGGVVQPGGSLRLSCAASGFTFSSYAMYWVRQAPGKGLEWVSAISSGGGSTDYADSVKGRFTISRDNSKNTLYLQMNSLRPEDTALYYCASDTLYTSLTWYSYWGQGTLVTVSS ?
0.0013

Requested read-out: koff. Entry: T0263018B11 S100K (VHH, name in Kabat numbering, FLAG3-His6 tagged) VHH: EVQLVESGGGVVQPGGSLRLSCAASGFTFSSYAMYWVRQAPGKGLEWVSAISSGGGSTDYADSVKGRFTISRDNSKNTLYLQMNSLRPEDTALYYCAADTLYTKLTWYSYWGQGTLVTVSS
0.0032

Please look up its koff: T0263018B11 S52aV (VHH, name in Kabat numbering, FLAG3-His6 tagged) VHH: EVQLVESGGGVVQPGGSLRLSCAASGFTFSSYAMYWVRQAPGKGLEWVSAISVGGGSTDYADSVKGRFTISRDNSKNTLYLQMNSLRPEDTALYYCAADTLYTSLTWYSYWGQGTLVTVSS
0.0027

I have this binder here, T0263018B11 Y32V (VHH, name in Kabat numbering, FLAG3-His6 tagged) VHH: EVQLVESGGGVVQPGGSLRLSCAASGFTFSSVAMYWVRQAPGKGLEWVSAISSGGGSTDYADSVKGRFTISRDNSKNTLYLQMNSLRPEDTALYYCAADTLYTSLTWYSYWGQGTLVTVSS , and I need its recorded koff.
0.004

Looking for the measured koff of T0263018B11 G26E (VHH, name in Kabat numbering, FLAG3-His6 tagged) VHH: EVQLVESGGGVVQPGGSLRLSCAASEFTFSSYAMYWVRQAPGKGLEWVSAISSGGGSTDYADSVKGRFTISRDNSKNTLYLQMNSLRPEDTALYYCAADTLYTSLTWYSYWGQGTLVTVSS , can you help?
0.00095

Quick one: koff for T0263018B11 T100bE (VHH, name in Kabat numbering, FLAG3-His6 tagged) VHH: EVQLVESGGGVVQPGGSLRLSCAASGFTFSSYAMYWVRQAPGKGLEWVSAISSGGGSTDYADSVKGRFTISRDNSKNTLYLQMNSLRPEDTALYYCAADTLYTSLEWYSYWGQGTLVTVSS ?
0.00071

Give the measured koff of T0263018B11 S52E (VHH, name in Kabat numbering, FLAG3-His6 tagged) VHH: EVQLVESGGGVVQPGGSLRLSCAASGFTFSSYAMYWVRQAPGKGLEWVSAIESGGGSTDYADSVKGRFTISRDNSKNTLYLQMNSLRPEDTALYYCAADTLYTSLTWYSYWGQGTLVTVSS .
0.0026
